Value source: patent US20230390274A1

# pIC50 values compiled below
Biological target: 15-PGDH/HPGD (Homo sapiens (Human))
Assay: hPGDH inhibitor screening biochemical assay
Details: 10 nM 15-PGDH/HPGD, 15 μM PGE2, 0.25 mM NAD; read-out: hPGDH: Average IC50
Text: A hydroxyprostaglandin dehydrogenase inhibition screening biochemical assay can be performed to assess the synthesized inhibitors provided herein. Provided herein is an exemplary biochemical assay for hPGDH inhibitor screening. […]
pIC50: −log10 of the molar value.

Guide cases for pIC50, answers given:
Cn1cc(-c2cccc(Cl)c2)c2ccc(C(=O)N3CCCCC3)cc21
> 7.00
COCCNC(=O)c1ccc(-n2ccc3cc(C(=O)N4CCCCC4)cnc32)cc1
> 7.00
COc1ccc(-n2nnc3cc(C(=O)N4CCC(F)CC4)ccc32)cc1
> 7.00
O=C(c1ccc2c(c1)ncn2-c1cccc(Cl)c1)N1CCC(F)(F)C1
≤ 6.00

// below: pIC50 requested for another compound
Problem: Which pIC50 value belongs to NS(=O)(=O)c1cccc(-n2ccc3cc(C(=O)N4CCC(F)(F)CC4)cnc32)c1 ?
Result: > 7.00

---

assay: Pharmacokinetic study in mice, intravenous 1 mg/kg; type: in vivo, C57BL/6 mice
Define the label as 1 when T1/2 is strictly less than 20 min and as -1 in all remaining cases.

O=C(c1cnc2c(ccn2-c2ccc(O)nc2)c1)N1CCCCC1
1
Cc1c(C(=O)N2CCC(F)CC2)cnc2c1ccn2-c1ccc(C(N)=O)cc1
-1
COCCNC(=O)c1ccc(-n2ccc3cc(C(=O)N4CCCCC4)cnc32)cc1
1
CN(C)C(=O)c1ccc(-n2ccc3cc(C(=O)N4CCCCC4)cnc32)cc1
1
COCCNC(=O)c1ccc(-n2ccc3cc(C(=O)N4CCC(F)CC4)cnc32)cc1
1

Problem: Dear reviewer, please state whether CNC(=O)c1ccc(-n2ccc3cc(C(=O)N4CCCCC4)cnc32)cc1 has T1/2 strictly beneath 20 min.
Result: -1

Problem: Dear reviewer, please state whether NC(=O)c1ccc(-n2ccc3cc(C(=O)N4CCC(F)CC4)cnc32)cc1 has T1/2 strictly beneath 20 min.
Result: 1

Problem: Dear reviewer, please state whether NC(=O)c1ncc(-n2ccc3cc(C(=O)N4CCCCC4)cnc32)cn1 has T1/2 strictly beneath 20 min.
Result: -1

---

molecular target: 15-PGDH/HPGD (Homo sapiens (Human), UniProt P15428); assay: hPGDH inhibitor screening biochemical assay; conditions: Table 1, PGDH inhibitors with a 6-5 ring core; read-out: hPGDH: IC50
Sequence (P15428 whole entry): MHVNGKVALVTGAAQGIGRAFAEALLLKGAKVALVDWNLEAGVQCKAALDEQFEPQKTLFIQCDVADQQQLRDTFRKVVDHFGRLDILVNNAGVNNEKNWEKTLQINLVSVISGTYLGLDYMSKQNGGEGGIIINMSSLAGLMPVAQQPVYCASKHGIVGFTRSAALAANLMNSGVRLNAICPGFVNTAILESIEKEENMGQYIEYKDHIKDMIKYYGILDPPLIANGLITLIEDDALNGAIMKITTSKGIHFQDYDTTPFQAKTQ
assay readout: IC50 (nM)
Form entry: value (nM) — number only.

COc1ccc(-n2cnc3cc(C(=O)N4CCC(F)(F)CC4)cnc32)cc1 [drawing 78]
57.4

Problem: Which IC50 value belongs to O=C(c1ccc2c(c1)ncn2-c1cccc(Cl)c1)N1CCCCC1 [drawing 98] ?
Result: 2.7

Problem: Which IC50 value belongs to O=C(c1ccc2c(c1)ncn2-c1cccc(Cl)c1)N1CC2CCCC2C1 (stereo not shown) [drawing 102] ?
Result: 24.9

Problem: Which IC50 value belongs to COc1ccc(-n2c(C3CC3)nc3cc(C(=O)N4CCCCC4)ccc32)cc1 ?
Result: 197

---

Target: 15-PGDH/HPGD (Homo sapiens (Human))
Experiment: hPGDH inhibitor screening biochemical assay
Details: Table 1, PGDH inhibitors with a 6-5 ring core; read-out: hPGDH: IC50
Text: A hydroxyprostaglandin dehydrogenase inhibition screening biochemical assay can be performed to assess the synthesized inhibitors provided herein. Provided herein is an exemplary biochemical assay for hPGDH inhibitor screening. […]
Define the label as Met when IC50 is strictly less than 20 nM and as Not met in all remaining cases.

Problem: Dear reviewer, please state whether O=C(c1ccc2c(c1)ncn2-c1cccc(Cl)c1)N1CCCC1 has IC50 strictly beneath 20 nM.
Result: Not met

Problem: Dear reviewer, please state whether O=C(c1ccc2c(c1)c(Cl)cn2-c1cccc(Cl)c1)N1CCCCC1 [drawing 104] has IC50 strictly beneath 20 nM.
Result: Met

Problem: Dear reviewer, please state whether COc1ccc(-n2cnc3cc(C(=O)N4CCC(F)CC4)ccc32)cc1 [drawing 109] has IC50 strictly beneath 20 nM.
Result: Not met

Problem: Dear reviewer, please state whether O=C(c1ccc2c(cnn2-c2cccc(Cl)c2)c1)N1CCCCC1 [drawing 111] has IC50 strictly beneath 20 nM.
Result: Met

Problem: Dear reviewer, please state whether O=C(c1ccc2c(c1)ncn2-c1cccc(Cl)c1)N1CC2CC2C1 (stereo not drawn) has IC50 strictly beneath 20 nM.
Result: Not met
